Test system: Fibroblast
Experiment: Incucyte cell viability with human fibroblast; note: unitless GR value; below 1 slowed growth and below 0 cell loss
Format: toxicity, cell-based
Conditions: 6 h, 10 µM, compound concentration 10 uM, replicate number 1
Tick Fulfilled if Growth Rate is 0.6 or greater. Tick Not fulfilled if Growth Rate is less than 0.6.

API: above_or_equal(metric=Growth Rate, cutoff=0.6) for item C[C@H](CCC(=O)O)[C@H]1CC[C@H]2[C@@H]3[C@H](O)C[C@@H]4C[C@H](O)CC[C@]4(C)[C@H]3C[C@H](O)[C@]12C [CHOLIC ACID]
Not fulfilled

API: above_or_equal(metric=Growth Rate, cutoff=0.6) for item c1ccc2nc(N3CCNCC3)ccc2c1 [QUIPAZINE]
Not fulfilled

API: above_or_equal(metric=Growth Rate, cutoff=0.6) for item C[C@@H](COCCC(=O)N1CCN(c2ncc(C(F)(F)F)cn2)CC1)Nc1cn[nH]c(=O)c1C(F)(F)F [ATAMPARIB]
Fulfilled

API: above_or_equal(metric=Growth Rate, cutoff=0.6) for item CC(C)(C)C1CCc2c(sc(NC(=O)c3ccco3)c2C(=O)O)C1 (stereo unspecified)
Fulfilled

API: above_or_equal(metric=Growth Rate, cutoff=0.6) for item CC[C@H](CO)Nc1nc(Nc2cccc(-c3ccccn3)c2)c2ncn(C(C)C)c2n1.Cl.O
Not fulfilled

API: above_or_equal(metric=Growth Rate, cutoff=0.6) for item COCc1c(-c2cc3cc(C)cc(OC)c3s2)c2c(N)ncnn2c1CN[C@@H]1CCNC1=O
Not fulfilled

API: above_or_equal(metric=Growth Rate, cutoff=0.6) for item O=C(Cc1ccccc1)Nc1nnc(N2C[C@H]3C[C@@H]2CN3c2cccnn2)s1 [A-446]
Not fulfilled

API: above_or_equal(metric=Growth Rate, cutoff=0.6) for item Cn1cnc(Cn2ccc3ccc(CNCc4[nH]c5ccccc5c4[C@@H]4NC(=O)c5ccc(O)cc54)cc32)c1
Not fulfilled

API: above_or_equal(metric=Growth Rate, cutoff=0.6) for item CS(=O)(=O)NC(=O)CCC/C=C\C[C@H]1C(=O)C[C@@H](O)[C@@H]1/C=C/[C@@H](O)COc1ccccc1 [SULPROSTONE]
Not fulfilled

API: above_or_equal(metric=Growth Rate, cutoff=0.6) for item CC(=O)Nc1nc2c(Oc3cc(-c4ccc(C(F)(F)F)cc4)ncn3)cccc2s1 [AMG-517]
Not fulfilled

API: above_or_equal(metric=Growth Rate, cutoff=0.6) for item Cn1cc(-c2cnc3ccc4ccc(CS(=O)(=O)NCc5ccccn5)cc4c(=O)c3c2)cn1 [MK-8033]
Fulfilled

API: above_or_equal(metric=Growth Rate, cutoff=0.6) for item CC(C)S(=O)(=O)c1ccccc1Nc1nc(N[C@@H]2CCCN(CCCCCCCNC(=O)COc3cccc4c3C(=O)N(C3CCC(=O)NC3=O)C4=O)C2)ncc1Cl (stereo partly specified)
Not fulfilled

API: above_or_equal(metric=Growth Rate, cutoff=0.6) for item COc1cc(-c2cn(C)c(=O)c3cnccc23)cc(OC)c1CN(C)C
Not fulfilled

API: above_or_equal(metric=Growth Rate, cutoff=0.6) for item Cc1cccc(CC(=O)N2CCc3c2ccc(-c2cn(C)c4ncnc(N)c24)c3F)n1
Fulfilled

API: above_or_equal(metric=Growth Rate, cutoff=0.6) for item O=C1N=C(NCc2cccs2)S/C1=C\c1ccc2ncccc2c1
Not fulfilled

API: above_or_equal(metric=Growth Rate, cutoff=0.6) for item C[C@@H](c1ccc(F)cc1)n1nnc2cnc3ccc(-c4ccc5ocnc5c4)cc3c21
Not fulfilled

API: above_or_equal(metric=Growth Rate, cutoff=0.6) for item CCCS(=O)(=O)Nc1ccc(F)c(Nc2ncnc3cnc(-n4cnc(C)c4)nc23)c1F
Fulfilled

API: above_or_equal(metric=Growth Rate, cutoff=0.6) for item C[C@H](c1ccnc(Nc2nc3ccc(-c4cc(N(C)C)ncn4)cc3[nH]2)c1)N1CCN(C(=O)CC(F)(F)F)CC1 [BAY-985]
Fulfilled

API: above_or_equal(metric=Growth Rate, cutoff=0.6) for item CC(C)(C)C(=O)NCc1ccc(Cl)c(C(=O)Nc2ncc[nH]2)c1 [LY-3031207]
Fulfilled

API: above_or_equal(metric=Growth Rate, cutoff=0.6) for item C=C[C@H]1C[N@@]2CC[C@H]1C[C@@H]2[C@@H](O)c1ccnc2ccc(OC)cc12 [QUINIDINE]
Not fulfilled

API: above_or_equal(metric=Growth Rate, cutoff=0.6) for item COc1cc(N(C)c2ccnc3ccc(C(F)(F)F)cc23)cc(OC)c1OC
Not fulfilled

API: above_or_equal(metric=Growth Rate, cutoff=0.6) for item Cc1cc(CN)cc(C)c1-c1ncn(C)c1-c1ccnc2cc(F)ccc12.Cl
Not fulfilled

API: above_or_equal(metric=Growth Rate, cutoff=0.6) for item Cc1cccc(-c2nn(C(=S)Nc3ccccc3)cc2-c2ccnc3ccccc23)n1
Fulfilled

API: above_or_equal(metric=Growth Rate, cutoff=0.6) for item O=C(NCc1cccc(O)c1)Nc1nc(-c2ccncc2)cs1
Not fulfilled

API: above_or_equal(metric=Growth Rate, cutoff=0.6) for item CN1CCCN(C(=O)c2cccc(-c3ccc(/C=C4/C(=O)Nc5ccc(Cl)cc54)o3)c2)CC1
Not fulfilled

API: above_or_equal(metric=Growth Rate, cutoff=0.6) for item COCCOCn1c(S(C)(=O)=O)nc2c1c(=O)n(C)c(=O)n2C
Not fulfilled

API: above_or_equal(metric=Growth Rate, cutoff=0.6) for item Cc1cc(CN)cc(C)c1-c1ncn(C)c1-c1cncn1C.Cl
Fulfilled

API: above_or_equal(metric=Growth Rate, cutoff=0.6) for item Cn1cc(-c2ccc(N(C(=O)NCc3ccccc3)[C@H]3CC[C@H](Nc4ccc(C#N)cn4)CC3)cc2)ccc1=O
Fulfilled

API: above_or_equal(metric=Growth Rate, cutoff=0.6) for item Cn1cnc(Cn2ccc3ccc(CNCc4[nH]c5ccccc5c4[C@H]4NC(=O)c5ccc(O)cc54)cc32)c1
Not fulfilled

API: above_or_equal(metric=Growth Rate, cutoff=0.6) for item Cl.O=C(O)CCCN1CCC[C@H]1COc1ccc(Oc2ccc(Cl)cc2)cc1
Fulfilled

API: above_or_equal(metric=Growth Rate, cutoff=0.6) for item COc1ccccc1C(=O)Nc1cccc(NC(=O)c2cccc(C)c2)c1
Not fulfilled

API: above_or_equal(metric=Growth Rate, cutoff=0.6) for item Cc1nc2cccnc2n2c(-c3cc([C@@]4(O)CCCOC4)ccc3Cl)nnc12
Not fulfilled

API: above_or_equal(metric=Growth Rate, cutoff=0.6) for item Fc1ccc(-c2nc(-c3ccc4ccccc4c3F)[nH]c2-c2ccncc2)cc1
Not fulfilled

API: above_or_equal(metric=Growth Rate, cutoff=0.6) for item Cc1nc2cccnc2n2c(-c3cc(C(C)(C)O)ncc3Cl)nnc12
Not fulfilled

---

Tested on: Fibroblast
Assay: Incucyte cell viability with human fibroblast; note: unitless GR value; below 1 slowed growth and below 0 cell loss
Type: toxicity, cell-based
Details: 0 h, 10 µM, compound concentration 10 uM, replicate number 2
Tick condition met if Growth Rate is -0.2 or greater. Tick condition not met if Growth Rate is less than -0.2.

API: above_or_equal(metric=Growth Rate, cutoff=-0.2) for item COc1ccc(N(C(=O)Nc2c(C)cccc2C)c2cc(Nc3ccc(N4CCN(C)CC4)cc3)ncn2)c(OC)c1
condition not met

API: above_or_equal(metric=Growth Rate, cutoff=-0.2) for item CCN1C(=O)c2cc(C)ccc2N(C)c2ncccc21
condition not met

API: above_or_equal(metric=Growth Rate, cutoff=-0.2) for item Cc1ccc(-n2nc(C(C)(C)C)cc2NC(=O)Nc2ccc(OCCN3CCOCC3)c3ccccc23)cc1
condition met

API: above_or_equal(metric=Growth Rate, cutoff=-0.2) for item Oc1ccc(-c2nc(-c3ccncc3)c(-c3ccc(F)cc3)[nH]2)cc1
condition met

API: above_or_equal(metric=Growth Rate, cutoff=-0.2) for item CCOC(=O)c1cncn1[C@H](C)c1ccccc1 [ETOMIDATE]
condition met

---

System: HEK-293T
Test: Incucyte cell viability with HEK293T; note: unitless GR value; below 1 slowed growth and below 0 cell loss
Assay type: toxicity, cell-based
Details: human, 6 h, 10 µM, compound concentration 10 uM, replicate number 1
Numbered stars: 1 amine (or outer) side, 2 acyl side, 3 side chain; on linkers, the order of the positions; unused ones are H or OH. Bridge positions count the residues as written; N and C are the ends. Square brackets hold non-standard residues; d marks the D form. Peptide text beside a SMILES is read from it. I, II: the chains in the order shown. Hexamethylenediamine = C(CCCN[*:2])CCN[*:1]; Dip = N[C@H](C(=O)O)C(c1ccccc1)c1ccccc1; Chg = N[C@H](C(=O)O)C1CCCCC1; NMeA = CN[C@@H](C)C(=O)O
Please provide measured Growth Rate for the entries that follow.
Answer with the value's number alone.

Report Growth Rate for Cc1nnc2n1-c1sc3c(c1C(c1ccccc1Cl)=NC2)C[C@H](C(=O)N1CCOCC1)C3
0.78

Report Growth Rate for CCOC(=O)c1cnn(-c2ccc(NC(=O)C(Cl)=C(Cl)Cl)cc2)c1C(F)(F)F
-0.63

Report Growth Rate for Cn1c(Nc2c(Cl)cccc2Cl)nc2ccc3nc[nH]c(=O)c3c21
0.08

Report Growth Rate for CCn1c(=O)c2c(C)c(C(=O)N3CCC(O)CC3)sc2n(CCC(F)(F)F)c1=O
0.41

Report Growth Rate for COc1cc2c(NC3CCN(C(C)C)CC3)nc(C3CCCCC3)nc2cc1OCCCN1CCCC1
-0.49

Report Growth Rate for CCOC(=O)c1ccc(N2C(=O)C(O)=C(C(=O)c3ccc(OC)cc3)C2c2ccc(F)cc2)cc1 (configuration not stated)
0.75

Report Growth Rate for CN[C@@H](C)C(=O)N[C@H](C(=O)N1CCC[C@H]1C(=O)N[C@H](C(=O)NCCCCCCNC(=O)[C@@H](NC(=O)[C@@H]1CCCN1C(=O)[C@@H](NC(=O)[C@H](C)NC)C1CCCCC1)C(c1ccccc1)c1ccccc1)C(c1ccccc1)c1ccccc1)C1CCCCC1 (I: H-[NMeA][Chg]P[Dip] / II: H-[NMeA][Chg]P[Dip]; linker I:C-II:C via Hexamethylenediamine)
-0.33
